Reported values of pIC50 for individual entries
Target chain: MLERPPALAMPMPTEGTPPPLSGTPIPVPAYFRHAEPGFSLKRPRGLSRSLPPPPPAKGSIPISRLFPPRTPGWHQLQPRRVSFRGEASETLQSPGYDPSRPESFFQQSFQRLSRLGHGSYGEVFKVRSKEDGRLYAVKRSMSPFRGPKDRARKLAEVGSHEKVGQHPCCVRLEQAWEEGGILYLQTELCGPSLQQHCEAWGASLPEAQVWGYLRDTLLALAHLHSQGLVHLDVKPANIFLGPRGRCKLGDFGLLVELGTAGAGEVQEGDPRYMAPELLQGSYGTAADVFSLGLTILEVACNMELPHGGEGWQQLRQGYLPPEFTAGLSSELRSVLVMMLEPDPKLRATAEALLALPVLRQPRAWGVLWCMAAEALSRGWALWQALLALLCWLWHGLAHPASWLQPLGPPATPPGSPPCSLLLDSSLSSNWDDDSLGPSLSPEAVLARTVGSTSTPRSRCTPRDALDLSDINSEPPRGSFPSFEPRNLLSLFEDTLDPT
pIC50: −log10 of the molar value.
observed property: pIC50

• Cc1ccc(O)c(C)c1-c1c(N)c(C(N)=O)nc2c1ncn2CC(F)(F)F (atropisomer, axis not shown; (P)) [Compound 86] = > 7.30
• Cc1c(O)cccc1-c1c(N)c(C(N)=O)nc2c1c(-c1c[nH]nn1)cn2C (atropisomer, axis not shown; (M)) [Compound 90] = > 7.30
• Cc1c(O)cccc1-c1c(N)c(C(N)=O)nc2c1c(C#N)c(C)n2CC(F)(F)F [Compound 14] = > 7.30
• Cc1ccc(O)c(C)c1-c1c(N)c(C(N)=O)cc2c1nc(C)n2C [Compound 15] = > 7.30
• Cc1ccc(O)c(C)c1-c1c(N)c(C(N)=O)cn2ccnc12 [Compound 46] = 6.30 to 7.30
• Cc1c(O)cccc1-c1c(N)c(C(N)=O)cn2ccnc12 (single isomer, unassigned) [Compound 45] = ≤ 5.30
• Cc1c(O)cccc1-c1c(N)c(C(N)=O)nc2c1c(C#N)c(C)n2C [Compound 9] = > 7.30
• Cc1ccc(O)c(C)c1-c1cc(C(N)=O)nc2c1c(Cl)cn2C (single isomer, unassigned) [Compound 31] = ≤ 5.30
• Cc1c(O)cccc1-c1c(N)c(C(N)=O)nc2c1c(C#N)cn2C (single isomer, unassigned) [Compound 6] = 6.00 to 6.30
• COC(=O)c1cnc2c(-c3cccc(O)c3C)c(N)c(C(N)=O)cn12 [Compound 50] = 6.30 to 7.30
• Cc1ccc(O)c(C)c1-c1cc(C(N)=O)cc2c1cnn2C [Compound 35] = 5.30 to 6.00
• Cc1c(Cl)cncc1-c1c(N)c(C(N)=O)nc2c1c(C#N)cn2C [Compound 11] = > 7.30
• Cc1ccc(O)c(C)c1-c1cc(C(N)=O)cc2nn(C)cc12 [Compound 36] = 5.30 to 6.00
• Cc1c(O)cccc1-c1c(N)c(C(N)=O)cn2c(C)nnc12 (single isomer, unassigned) [Compound 52] = 6.30 to 7.30
• Cc1c(O)cccc1-c1c(N)c(C(N)=O)nc2c1c(C#N)cn2-c1ncccc1F (atropisomer, axis not shown; (M)) [Compound 78] = > 7.30
